Kindly find below pIC50 information for ALK tyrosine kinase receptor (Homo sapiens, UniProt Q9UM73) taken from the literature.
pIC50: −log10 of the molar value.

These recorded examples may help you get a feel for the data.
Enquiry: Record Cc1cc(Nc2ncc(Cl)c(Nc3ccccc3N(C)S(N)(=O)=O)n2)c(OC(C)C)cc1C1=CCN(C2CCOCC2)CC1 : what is its pIC50 with ALK tyrosine kinase receptor (Homo sapiens, UniProt Q9UM73)?
Return: 9.22

Enquiry: Record CN1CCN(c2ccc(C(=O)Nc3n[nH]c4ccc(S(=O)(=O)c5ccccc5)cc34)cc2)CC1 : what is its pIC50 with ALK tyrosine kinase receptor (Homo sapiens, UniProt Q9UM73)?
Return: 6.47

Enquiry: Record CNC(=O)c1c(F)cccc1Nc1nc(Nc2cc3c(cc2OC)C[C@@H](C)N3C(=O)CN(C)C)nc2[nH]ccc12 : what is its pIC50 with ALK tyrosine kinase receptor (Homo sapiens, UniProt Q9UM73)?
Return: 6.70 to 8.30

Enquiry: Record Cc1n[nH]c2nc(-c3ccc(OC(=O)c4ccccc4)cc3F)c(C#N)c(-c3ccc(N4CCNCC4)cc3)c12 : what is its pIC50 with ALK tyrosine kinase receptor (Homo sapiens, UniProt Q9UM73)?
Return: 6.00 to 7.00

Enquiry: Record CN1CCC(N2Cc3cc4nc(-c5c(N[C@@H](CO)Cc6ccccc6)cc[nH]c5=O)[nH]c4cc3C2=O)CC1 : what is its pIC50 with ALK tyrosine kinase receptor (Homo sapiens, UniProt Q9UM73)?
Return: 5.30 to 6.30

Next item in the queue.
Enquiry: Record COc1cc(C2=CCCN(C)C2)ccc1Nc1nc(Nc2ccccc2C(N)=O)c2cc[nH]c2n1 : what is its pIC50 with ALK tyrosine kinase receptor (Homo sapiens, UniProt Q9UM73)?
Return: 9.00 to 9.60

----------
pIC50: −log10 of the molar value.
Kindly find below pIC50 information for ALK tyrosine kinase receptor (Homo sapiens, UniProt Q9UM73) taken from the literature.

These recorded examples may help you get a feel for the data.
Enquiry: Record O=C(c1ccc(-c2cnc3c(c2)N(Cc2cc(Cl)ccc2C(F)(F)F)CCN3)cc1)N1CCC(N2CCOCC2)CC1 : what is its pIC50 with ALK tyrosine kinase receptor (Homo sapiens, UniProt Q9UM73)?
Return: > 7.00

Enquiry: Record Clc1cc(-c2cnc3c(c2)N(Cc2c(Cl)cccc2Cl)CCN3)ccn1 : what is its pIC50 with ALK tyrosine kinase receptor (Homo sapiens, UniProt Q9UM73)?
Return: 6.00 to 7.00

Enquiry: Record O=C(NCc1cccc2ccccc12)c1ccc(-c2cnc3c(c2)N(Cc2cc(Cl)ccc2C(F)(F)F)CCN3)cc1 : what is its pIC50 with ALK tyrosine kinase receptor (Homo sapiens, UniProt Q9UM73)?
Return: 5.00 to 6.00

Enquiry: Record CCCN1CCC=C(c2ccc(Nc3nc(Nc4ccc(OC)cc4C(N)=O)c4cc[nH]c4n3)c(OC)c2)C1 : what is its pIC50 with ALK tyrosine kinase receptor (Homo sapiens, UniProt Q9UM73)?
Return: 9.00 to 9.60

Enquiry: Record O=C(c1cnc2c(c1)N(Cc1cc(Cl)ccc1Cl)CCN2)N1CCN(C(c2ccccc2)c2ccccc2)CC1 : what is its pIC50 with ALK tyrosine kinase receptor (Homo sapiens, UniProt Q9UM73)?
Return: 4.00 to 5.00

New cases:
Enquiry: Record Cc1c(Cl)cccc1OC[C@H](O)CNc1cc[nH]c(=O)c1-c1nc2cc3c(cc2[nH]1)C(=O)N(CCCN1CCCC1)C3=O : what is its pIC50 with ALK tyrosine kinase receptor (Homo sapiens, UniProt Q9UM73)?
Return: 5.30 to 6.30

Enquiry: Record N#Cc1c(-c2cc3cc[nH]c3cc2F)nc2[nH]nc(N)c2c1-c1ccc(N2CCNCC2)cc1 : what is its pIC50 with ALK tyrosine kinase receptor (Homo sapiens, UniProt Q9UM73)?
Return: 6.00 to 7.00

Enquiry: Record Clc1cccc(OC2CCNc3ncc(-c4ccc(N5CCOCC5)cc4)cc32)c1 (centres unmarked) : what is its pIC50 with ALK tyrosine kinase receptor (Homo sapiens, UniProt Q9UM73)?
Return: 5.00 to 6.00

Enquiry: Record O=C(c1ccc(-c2cnc3c(c2)N(Cc2cc(Cl)ccc2C(F)(F)F)CCN3)cc1)N1CCOCC1 : what is its pIC50 with ALK tyrosine kinase receptor (Homo sapiens, UniProt Q9UM73)?
Return: 6.00 to 7.00

Enquiry: Record O=C1c2cc3nc(-c4c(NC[C@@H](O)c5cccc(Cl)c5)cc[nH]c4=O)[nH]c3cc2C(=O)N1CCc1ccncc1 : what is its pIC50 with ALK tyrosine kinase receptor (Homo sapiens, UniProt Q9UM73)?
Return: 4.82 to 5.30

----------
pIC50: −log10 of the molar value.
Kindly find below pIC50 information for ALK tyrosine kinase receptor (Homo sapiens) taken from the literature.

These recorded examples may help you get a feel for the data.
Enquiry: What measured pIC50 goes with COc1cccc(OC[C@H](O)CNc2cc[nH]c(=O)c2-c2nc3cc4c(cc3[nH]2)C(=O)N(C2CCN(C)CC2)C4)c1C ?
Return: 4.82 to 5.30

Enquiry: What measured pIC50 goes with N#Cc1c(-c2c(F)ccc(F)c2F)nc2[nH]nc(N)c2c1-c1ccc(N2CCNCC2)cc1 ?
Return: 5.00 to 6.00

Enquiry: What measured pIC50 goes with CCc1cc2c(cc1OC[C@H](O)CNc1cc[nH]c(=O)c1-c1nc3cc4c(cc3[nH]1)C(=O)N(C1CCN(C)CC1)C4)OCO2 ?
Return: 5.30 to 6.30

Next item in the queue.
Enquiry: What measured pIC50 goes with O=C(c1ccc(-c2cnc3c(c2)N(Cc2cc(Cl)ccc2C(F)(F)F)CCN3)cc1)N1CCN(c2cccc(Cl)c2)CC1 ?
Return: 6.00 to 7.00

----------
Kindly find below pIC50 information for ALK tyrosine kinase receptor (Homo sapiens, UniProt Q9UM73) taken from the literature.
pIC50: −log10 of the molar value.

These recorded examples may help you get a feel for the data.
Enquiry: Record CCN1CCC(Nc2ccc3c(c2)/C(=C(/c2nc(C)c[nH]2)c2ccc(F)cc2F)C(=O)N3)CC1 : what is its pIC50 with ALK tyrosine kinase receptor (Homo sapiens, UniProt Q9UM73)?
Return: 6.30 to 7.30

Enquiry: Record Cc1ccc(OC[C@@H](O)CNc2cc[nH]c(=O)c2-c2nc3cc4c(cc3[nH]2)C(=O)N(C2CCN(C)CC2)C4=O)c(C)c1 : what is its pIC50 with ALK tyrosine kinase receptor (Homo sapiens, UniProt Q9UM73)?
Return: 4.82 to 5.30

Enquiry: Record O=C1c2cc3nc(-c4c(NC[C@@H](O)COc5c(F)ccc(Cl)c5F)cc[nH]c4=O)[nH]c3cc2C(=O)N1C1CCN(CCCO)CC1 : what is its pIC50 with ALK tyrosine kinase receptor (Homo sapiens, UniProt Q9UM73)?
Return: 5.30 to 6.30

Enquiry: Record N#Cc1c(-c2ccc(O)cc2)nc2[nH]ncc2c1-c1ccc(O)cc1 : what is its pIC50 with ALK tyrosine kinase receptor (Homo sapiens, UniProt Q9UM73)?
Return: 6.00 to 7.00

Enquiry: Record Cc1ccc(NC(=O)CN(C)C)cc1Nc1nc(Nc2ccc(Cl)cc2C(N)=O)c2cc[nH]c2n1 : what is its pIC50 with ALK tyrosine kinase receptor (Homo sapiens, UniProt Q9UM73)?
Return: 6.70 to 8.30

Next item in the queue.
Enquiry: Record O=C(NCC1CCCO1)c1ccc(-c2cnc3c(c2)N(Cc2cc(Cl)ccc2C(F)(F)F)CCN3)cc1 (stereo not drawn) : what is its pIC50 with ALK tyrosine kinase receptor (Homo sapiens, UniProt Q9UM73)?
Return: 6.00 to 7.00

----------
Kindly find below IC50 information for UniProt Q9UM73 taken from the literature.

Enquiry: What measured IC50 goes with O=C(NCc1csc(-c2ccccc2)n1)c1ccc(-c2cnc3c(c2)N(Cc2cc(Cl)ccc2C(F)(F)F)CCN3)cc1 ?
Return: 100 to 1000 nM

Enquiry: What measured IC50 goes with COc1cc2c(cc1Nc1nc(Nc3cccc(F)c3C(N)=O)c3cc[nH]c3n1)CCN2C(=O)CN(C)C ?
Return: 1.26 to 3.98 nM

Enquiry: What measured IC50 goes with CNC(=O)c1c(F)cccc1Nc1nc(Nc2cc3c(cc2OC)CCN3C(=O)[C@H]2CCCN2C)nc2[nH]ccc12 ?
Return: 5.01 to 200 nM

Enquiry: What measured IC50 goes with Fc1ccc(F)c(CN2CCNc3ncc(I)cc32)c1Cl ?
Return: 1000 to 10000 nM

Enquiry: What measured IC50 goes with CN1CCC(N2Cc3cc4nc(-c5c(NC[C@@H](O)COc6ccc(F)cc6F)cc[nH]c5=O)[nH]c4cc3C2=O)CC1 ?
Return: 500 to 5000 nM

Enquiry: What measured IC50 goes with CN(C)CCN1CCN(c2ccc(-c3c(C#N)c(-c4ccc(O)cc4)nc4[nH]nc(-c5ccc(Cl)cc5)c34)c(F)c2)CC1 ?
Return: < 100 nM

Enquiry: What measured IC50 goes with COc1cc(N2CCN(CC(C)C)CC2)ccc1Nc1nc(Nc2cc(F)ccc2C(N)=O)c2cc[nH]c2n1 ?
Return: 0.251 to 1 nM

Enquiry: What measured IC50 goes with CN(C)CC(=O)Nc1ccc(F)c(Nc2nc(Nc3ccccc3C(N)=O)c3cc[nH]c3n2)c1 ?
Return: 0.251 to 1 nM

New cases:
Enquiry: What measured IC50 goes with N#Cc1c(-c2ccc(O)cc2Cl)nc2[nH]nc(-c3ccc(N4CCOCC4)cc3)c2c1-c1ccc(N2CCNCC2)cc1 ?
Return: < 100 nM

Enquiry: What measured IC50 goes with CN1CCN(c2ccc(-c3cnc4c(c3)N(S(=O)(=O)c3ccccc3)CCN4)cn2)CC1 ?
Return: 100 to 1000 nM

Enquiry: What measured IC50 goes with O=C(O)c1ccc(-c2cnc3c(c2)N(Cc2ccccc2)CCN3)cc1 ?
Return: 100 to 1000 nM
